tested on: S. aureus RF122; experiment: Deferred antagonism assay of producer strains; type: cell-based, Staphylococcus aureus; details: producer strain vs S. aureus RF122; zone area relative to wild type nisin A producer
Ends that are not written are not given here.
quantityMeasured: Deferred Antagonism Relative to WT (%)
Record the value in %, omitting the unit from your answer.

Some solved cases for reference:
Field request: Deferred Antagonism Relative to WT (%) | item: SLS: nisin A derivative with hinge region SLS (ITSISLCTPGCKTGALMGCSLSTATCHCSIHVSK; also: nisin-type thioether rings and dehydrated residues, not located; UniProt P13068 24-57, looked up, variant N20S M21L K22S) 111.29

Field request: Deferred Antagonism Relative to WT (%) | item: SAA: nisin A derivative with hinge region consisting of SAA (rational design) (ITSISLCTPGCKTGALMGCSAATATCHCSIHVSK; also: nisin-type thioether rings and dehydrated residues, not located; UniProt P13068 24-57, looked up, variant N20S M21A K22A) 170.83

Others:
Field request: Deferred Antagonism Relative to WT (%) | item: AAA: nisin A derivative with hinge region consisting of AAA (rational design) (ITSISLCTPGCKTGALMGCAAATATCHCSIHVSK; not fully specified; also: nisin-type thioether rings and dehydrated residues, not located; UniProt P13068 24-57, looked up, variant N20A M21A K22A) 211.29

Field request: Deferred Antagonism Relative to WT (%) | item: NAI: nisin A derivative with hinge region NAI (ITSISLCTPGCKTGALMGCNAITATCHCSIHVSK; also: nisin-type thioether rings and dehydrated residues, not located; UniProt P13068 24-57, looked up, variant M21A K22I) 118.02

* * *

test system: S. agalactiae ATCC 13813; assay: Minimum inhibitory concentration (MIC) assay in broth; assay type: cell-based, Streptococcus agalactiae; conditions: broth, BSA-pretreated 96-well plates, triplicate, 2-fold dilutions from 7.5 µM, 10^5 cfu/ml, 16 h
Ends that are not written are not given here.
quantityMeasured: MIC Specific Activity as % of WT (%)
Record the value in %, omitting the unit from your answer.

Field request: MIC Specific Activity as % of WT | item: NAI: nisin A derivative with hinge region NAI (ITSISLCTPGCKTGALMGCNAITATCHCSIHVSK; also: nisin-type thioether rings and dehydrated residues, not located; UniProt P13068 24-57, looked up, variant M21A K22I) 200

Field request: MIC Specific Activity as % of WT | item: AAA: nisin A derivative with hinge region consisting of AAA (rational design) (ITSISLCTPGCKTGALMGCAAATATCHCSIHVSK; not fully specified; also: nisin-type thioether rings and dehydrated residues, not located; UniProt P13068 24-57, looked up, variant N20A M21A K22A) 200

Field request: MIC Specific Activity as % of WT | item: SAA: nisin A derivative with hinge region consisting of SAA (rational design) (ITSISLCTPGCKTGALMGCSAATATCHCSIHVSK; also: nisin-type thioether rings and dehydrated residues, not located; UniProt P13068 24-57, looked up, variant N20S M21A K22A) 100

Turning now to a further record.
Field request: MIC Specific Activity as % of WT | item: SLS: nisin A derivative with hinge region SLS (ITSISLCTPGCKTGALMGCSLSTATCHCSIHVSK; also: nisin-type thioether rings and dehydrated residues, not located; UniProt P13068 24-57, looked up, variant N20S M21L K22S) 25
